Recorded log10(solubility thermodynamic at 16 h) values for a group of compounds are listed next.
assay: Thermodynamic solubility of the compound in phosphate buffer at pH 7.4 after 16 hrs by HPLC analysis; assay type: physicochemical; settings: read-out: Therm_solubility
Outcome Measure: log10(solubility thermodynamic at 16 h) (log10 of the value in µM)

[[record]]
smiles_structure = "O=c1cc(N2CCOCC2)nc(Cc2nc3c(-c4ccccc4)cccc3[nH]2)[nH]1"
observed = 0.48

[[record]]
smiles_structure = "Cn1c(Cc2nc(N3CCOCC3)cc(=O)[nH]2)nc2ccccc21"
observed = 1.81

[[record]]
smiles_structure = "O=c1cc(N2CCOCC2)nc(Cc2nc3ccccc3o2)[nH]1"
observed = 2.20

[[record]]
smiles_structure = "Cn1c(Cc2nc(N3CCOCC3)cc(=O)[nH]2)nc2cccc(-c3ccccc3)c21"
observed = 0.30

[[record]]
smiles_structure = "CCn1c(Cc2nc(N3CCOCC3)cc(=O)[nH]2)nc2ccccc21"
observed = 2.34


====

Recorded Papp values for a group of molecules are listed next.
assay: Apparent permeability of the compound across human Caco2 cells; assay type: ADME, cell-based; settings: Caco-2
Outcome Measure: Papp (×10⁻⁶ cm/s)

[[record]]
smiles_structure = "CCn1c(Cc2nc(N3CCOCC3)cc(=O)[nH]2)nc2ccccc21"
outcome_measure = "Papp"
observed = 0.5

[[record]]
smiles_structure = "O=c1cc(N2CCOCC2)nc(Cc2nc3cc(F)ccc3n2C2CC2)[nH]1"
outcome_measure = "Papp"
observed = 2.2

[[record]]
smiles_structure = "O=c1cc(N2CCOCC2)nc(Cc2nc3cccc(-c4ccccc4)c3o2)[nH]1"
outcome_measure = "Papp"
observed = 32.3

[[record]]
smiles_structure = "O=c1cc(N2CCOCC2)nc(Cc2nc3c(-c4cccs4)cccc3o2)[nH]1"
outcome_measure = "Papp"
observed = 25.5

[[record]]
smiles_structure = "O=c1cc(N2CCOCC2)nc(Cc2nc3ccc(F)cc3[nH]2)[nH]1"
outcome_measure = "Papp"
observed = 0.2

[[record]]
smiles_structure = "O=c1cc(N2CCOCC2)nc(Cc2nc3c(-c4ccccc4)cccc3o2)[nH]1"
outcome_measure = "Papp"
observed = 31

[[record]]
smiles_structure = "O=c1cc(N2CCOCC2)nc(Cc2nc3cc(F)ccc3o2)[nH]1"
outcome_measure = "Papp"
observed = 16

[[record]]
smiles_structure = "O=c1cc(N2CCOCC2)nc(Cc2nc3ccccc3n2-c2ccccc2)[nH]1"
outcome_measure = "Papp"
observed = 4.4

[[record]]
smiles_structure = "Cn1c(Cc2nc(N3CCOCC3)cc(=O)[nH]2)nc2cccc(-c3ccccc3)c21"
outcome_measure = "Papp"
observed = 3.9

[[record]]
smiles_structure = "O=c1cc(N2CCOCC2)nc(Cc2nc3c(-c4ccccc4)c(F)ccc3o2)[nH]1"
outcome_measure = "Papp"
observed = 37.1

[[record]]
smiles_structure = "O=c1cc(N2CCOCC2)nc(Cc2nc3ccccc3n2C2CCCCC2)[nH]1"
outcome_measure = "Papp"
observed = 1.5

[[record]]
smiles_structure = "Cn1c(Cc2nc(N3CCOCC3)cc(=O)[nH]2)nc2c(-c3ccccc3)cccc21"
outcome_measure = "Papp"
observed = 11.4

[[record]]
smiles_structure = "O=c1cc(N2CCOCC2)nc(Cc2nc3c(-c4ccccc4)cccc3[nH]2)[nH]1"
outcome_measure = "Papp"
observed = 0.1

[[record]]
smiles_structure = "O=c1cc(N2CCOCC2)nc(Cc2nc3ccccc3o2)[nH]1"
outcome_measure = "Papp"
observed = 19.9

[[record]]
smiles_structure = "Cn1c(Cc2nc(N3CCOCC3)cc(=O)[nH]2)nc2cc(F)ccc21"
outcome_measure = "Papp"
observed = 3.1

[[record]]
smiles_structure = "Cn1c(Cc2nc(N3CCOCC3)cc(=O)[nH]2)nc2ccccc21"
outcome_measure = "Papp"
observed = 3

